All figures here come from ChEMBL document CHEMBL1201862.

target: Paired box protein Pax-8 (Homo sapiens); assay: PAX8 transcriptional activity inhibition in RMG-I – RMG-I cells, luciferase, cherry-pick, dose response (AID 687027); assay type: functional, cell-based;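 also: luciferase reporter driven by Pax8 target thyroperoxidase promoter measured by SteadyGlo luminescence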
Sequence (Q06710 whole entry): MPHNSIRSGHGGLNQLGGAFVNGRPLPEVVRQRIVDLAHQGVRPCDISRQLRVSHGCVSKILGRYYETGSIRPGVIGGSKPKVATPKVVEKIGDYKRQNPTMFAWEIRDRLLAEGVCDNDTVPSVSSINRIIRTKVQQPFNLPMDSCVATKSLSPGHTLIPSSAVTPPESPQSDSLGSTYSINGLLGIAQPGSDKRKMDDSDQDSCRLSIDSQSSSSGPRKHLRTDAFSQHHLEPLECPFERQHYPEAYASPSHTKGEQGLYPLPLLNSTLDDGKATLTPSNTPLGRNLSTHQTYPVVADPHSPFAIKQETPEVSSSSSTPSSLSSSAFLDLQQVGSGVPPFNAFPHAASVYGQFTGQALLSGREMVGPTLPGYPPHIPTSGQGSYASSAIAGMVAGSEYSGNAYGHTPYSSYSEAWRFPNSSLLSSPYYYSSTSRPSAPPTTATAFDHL
Calls of active or inactive are those of the source.
Let's look at some molecules and their measured AC50.
ASSAY METRIC: AC50

[[record]]
molecule = "NC(=O)c1cn(C2OC(CO)C(O)C2O)c2ncnc(N)c12 (stereo not drawn)"
assay_metric = "AC50"
readout_value = "< 260 nM (active)"

[[record]]
molecule = "CCCC(=O)Nc1ccc2c(c1)C(=O)N(C)C[C@@H](OC)[C@H](C)CN(Cc1ccc(-c3ccccn3)cc1)[C@H](C)CO2"
assay_metric = "AC50"
readout_value = "28700 nM (active)"

[[record]]
molecule = "CCS(=O)(=O)c1ccc(N=Nc2ccc(O)c3ncccc23)c(OC)c1"
assay_metric = "AC50"
readout_value = "1190 nM (active)"


----------
experiment: NIH-3T3 fibroblast cytotoxicity, dose response, cytotoxicity control, cell-based, fluorescence, Alamar Blue, secondary assay (AID 2327); format: functional;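 also: NIH-3T3 mouse fibroblasts cultured with fluconazole at 8 µg/mL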
Activity calls are given as the source filed them.
Labels: active, inactive

[[record]]
structure_smiles_string = "O=C1CSC(NC(=O)N2c3ccccc3Sc3ccccc32)=N1"
label_class = "inactive"

[[record]]
structure_smiles_string = "Cc1[nH]n(-c2ccccc2)c(=O)c1/C=N/Nc1nncc(-c2ccccc2)n1"
label_class = "active"

[[record]]
structure_smiles_string = "c1ccc(CSc2nnc(-c3cccs3)n2Cc2ccco2)cc1"
label_class = "inactive"

[[record]]
structure_smiles_string = "Cc1nn(-c2ccccc2)c(Cl)c1/C=C/C(=O)c1ccc(O)cc1"
label_class = "inactive"

[[record]]
structure_smiles_string = "c1ccc(-c2ccccc2OCCCN2CCCCCC2)cc1"
label_class = "inactive"


----------
Measured AC50 on Cytochrome P450 2C9 (Homo sapiens, UniProt P11712) follows.
Sequence (P11712 whole entry): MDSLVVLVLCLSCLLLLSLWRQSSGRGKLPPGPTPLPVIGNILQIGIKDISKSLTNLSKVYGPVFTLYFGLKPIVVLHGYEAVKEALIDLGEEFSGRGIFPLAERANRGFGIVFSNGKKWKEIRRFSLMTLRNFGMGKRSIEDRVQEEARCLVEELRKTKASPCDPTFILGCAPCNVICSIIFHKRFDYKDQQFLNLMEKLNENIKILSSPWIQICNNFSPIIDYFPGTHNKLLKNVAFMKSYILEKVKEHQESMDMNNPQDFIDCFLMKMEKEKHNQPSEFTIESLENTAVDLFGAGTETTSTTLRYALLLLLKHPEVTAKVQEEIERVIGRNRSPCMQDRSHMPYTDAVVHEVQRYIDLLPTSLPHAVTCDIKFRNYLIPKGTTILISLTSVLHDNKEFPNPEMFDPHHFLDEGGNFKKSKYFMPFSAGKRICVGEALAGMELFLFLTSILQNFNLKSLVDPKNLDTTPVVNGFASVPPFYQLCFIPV
ASSAY METRIC: AC50

[[record]]
molecule = "CCn1c(C)nc2cc(C(=O)NNS(=O)(=O)c3ccccc3F)ccc21"
subject_of_test = "Cytochrome P450 2C9 (Homo sapiens, UniProt P11712)"
assay_metric = "AC50"
readout_value = "20 µM (inconclusive)"

[[record]]
molecule = "O=C(Oc1ccccc1)N1CCC2(CC1)CCN(c1ccncc1)CC2"
subject_of_test = "Cytochrome P450 2C9 (Homo sapiens, UniProt P11712)"
assay_metric = "AC50"
readout_value = "20 µM (inconclusive)"

[[record]]
molecule = "CCn1c(C)cc(/C=C2\\SC(=O)N(CC(=O)Nc3ccc(C)c(C)c3)C2=O)c1C"
subject_of_test = "Cytochrome P450 2C9 (Homo sapiens, UniProt P11712)"
assay_metric = "AC50"
readout_value = "1.58 µM (inconclusive)"

[[record]]
molecule = "COc1cccc(Cn2c(=O)c(-c3cccs3)nc3cnc(OCc4ccccc4)nc32)c1"
subject_of_test = "Cytochrome P450 2C9 (Homo sapiens, UniProt P11712)"
assay_metric = "AC50"
readout_value = "0.631 µM (inconclusive)"

[[record]]
molecule = "COC(=O)N1CC(=O)N(OC)C1c1ccc(Cl)cc1Cl (configuration not stated)"
subject_of_test = "Cytochrome P450 2C9 (Homo sapiens, UniProt P11712)"
assay_metric = "AC50"
readout_value = "0.316 µM (inconclusive)"

[[record]]
molecule = "Cc1ccc2c(c1)-c1c(cnn1CC(=O)O)CO2"
subject_of_test = "Cytochrome P450 2C9 (Homo sapiens, UniProt P11712)"
assay_metric = "AC50"
readout_value = "11.2 µM (inconclusive)"

[[record]]
molecule = "C/C(=N\\NC(=O)C1CC1c1ccccc1)c1cccs1 (configuration not stated)"
subject_of_test = "Cytochrome P450 2C9 (Homo sapiens, UniProt P11712)"
assay_metric = "AC50"
readout_value = "11.2 µM (inconclusive)"

[[record]]
molecule = "CSc1nc2ccccc2cc1/C=C(\\C#N)c1cccc(C)c1"
subject_of_test = "Cytochrome P450 2C9 (Homo sapiens, UniProt P11712)"
assay_metric = "AC50"
readout_value = "31.6 µM (inconclusive)"

[[record]]
molecule = "CC1(C)CCCN(C(=O)N2c3ccccc3Sc3ccccc32)C1"
subject_of_test = "Cytochrome P450 2C9 (Homo sapiens, UniProt P11712)"
assay_metric = "AC50"
readout_value = "15.8 µM (inconclusive)"

[[record]]
molecule = "COC(=O)c1c(NC(=O)Cn2cc([N+](=O)[O-])cn2)sc2c1CCC2"
subject_of_test = "Cytochrome P450 2C9 (Homo sapiens, UniProt P11712)"
assay_metric = "AC50"
readout_value = "3.55 µM (inconclusive)"

[[record]]
molecule = "CCN1CCN(c2nc3ccccc3nc2C(C#N)C(=O)OC2CCCCC2)CC1 (configuration not stated)"
subject_of_test = "Cytochrome P450 2C9 (Homo sapiens, UniProt P11712)"
assay_metric = "AC50"
readout_value = "39.8 µM (inconclusive)"

[[record]]
molecule = "Cc1cc(C)cc(Oc2nn[nH]n2)c1"
subject_of_test = "Cytochrome P450 2C9 (Homo sapiens, UniProt P11712)"
assay_metric = "AC50"
readout_value = "7.08 µM (inconclusive)"

[[record]]
molecule = "CN(C)CCCNC(=O)CCc1nc(O)c2ccccc2n1"
subject_of_test = "Cytochrome P450 2C9 (Homo sapiens, UniProt P11712)"
assay_metric = "AC50"
readout_value = "1 µM (inconclusive)"

[[record]]
molecule = "O=c1c(-c2cc(F)cc(F)c2)nc2cncnc2n1-c1ccccc1"
subject_of_test = "Cytochrome P450 2C9 (Homo sapiens, UniProt P11712)"
assay_metric = "AC50"
readout_value = "10 µM (inconclusive)"

[[record]]
molecule = "CCOC(=O)c1[nH]c(C)c(C)c1C"
subject_of_test = "Cytochrome P450 2C9 (Homo sapiens, UniProt P11712)"
assay_metric = "AC50"
readout_value = "1.12 µM (inconclusive)"

[[record]]
molecule = "c1ccc(CNc2ncncc2-c2ccoc2)cc1"
subject_of_test = "Cytochrome P450 2C9 (Homo sapiens, UniProt P11712)"
assay_metric = "AC50"
readout_value = "0.501 µM (inconclusive)"

[[record]]
molecule = "COC(=O)CSc1ccc(C#N)c(SCC(=O)OC)c1"
subject_of_test = "Cytochrome P450 2C9 (Homo sapiens, UniProt P11712)"
assay_metric = "AC50"
readout_value = "20 µM (inconclusive)"

[[record]]
molecule = "Cn1c(=O)n(C)c2cc(/C=N/NC(=O)c3ccc(Cl)cc3Cl)ccc21"
subject_of_test = "Cytochrome P450 2C9 (Homo sapiens, UniProt P11712)"
assay_metric = "AC50"
readout_value = "39.8 µM (inconclusive)"

[[record]]
molecule = "Cc1nn(C(=O)c2ccco2)c(C)c1Sc1ccccc1"
subject_of_test = "Cytochrome P450 2C9 (Homo sapiens, UniProt P11712)"
assay_metric = "AC50"
readout_value = "2.24 µM (inconclusive)"

[[record]]
molecule = "Cc1cccc(OC(=O)CN2C(=O)C3C4CCC(C4)C3C2=O)c1C (configuration not stated)"
subject_of_test = "Cytochrome P450 2C9 (Homo sapiens, UniProt P11712)"
assay_metric = "AC50"
readout_value = "2 µM (inconclusive)"

[[record]]
molecule = "Cc1cc(NC(=O)CCC(=O)N(CC2CCCO2)C(C(=O)NC2CCCC2)c2cccnc2)no1 (configuration not stated)"
subject_of_test = "Cytochrome P450 2C9 (Homo sapiens, UniProt P11712)"
assay_metric = "AC50"
readout_value = "17.8 µM (inconclusive)"

[[record]]
molecule = "Cc1nonc1NCn1nnc2ccccc21"
subject_of_test = "Cytochrome P450 2C9 (Homo sapiens, UniProt P11712)"
assay_metric = "AC50"
readout_value = "5.01 µM (inconclusive)"

